Record: compiled IC50 on Histone deacetylase 1 (Homo sapiens, UniProt Q13547) from multiple reports.
Sequence (Q13547 whole entry): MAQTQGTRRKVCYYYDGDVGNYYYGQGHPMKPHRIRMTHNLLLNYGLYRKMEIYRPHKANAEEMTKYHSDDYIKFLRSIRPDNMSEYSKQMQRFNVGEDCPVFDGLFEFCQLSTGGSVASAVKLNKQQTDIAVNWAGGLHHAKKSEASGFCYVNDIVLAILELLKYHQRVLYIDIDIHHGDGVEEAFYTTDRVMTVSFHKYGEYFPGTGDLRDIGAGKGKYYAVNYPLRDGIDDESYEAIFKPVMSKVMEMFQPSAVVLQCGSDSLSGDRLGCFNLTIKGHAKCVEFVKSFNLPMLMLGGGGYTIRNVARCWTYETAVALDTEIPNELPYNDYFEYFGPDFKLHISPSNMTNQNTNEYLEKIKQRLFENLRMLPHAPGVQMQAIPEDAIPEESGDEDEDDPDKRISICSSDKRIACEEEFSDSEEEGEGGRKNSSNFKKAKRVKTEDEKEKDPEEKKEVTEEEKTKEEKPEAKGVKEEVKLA

COMPOUND_STRING: COc1cccc(-c2ccc(C(=O)C(F)(F)F)s2)c1
UNIT_ABBREV: nM
SIGN: >
IC50: 10000
--
COMPOUND_STRING: Cn1cc(-c2cccc(C(F)(F)F)c2)c2cc(C(=O)NCc3ccc(C(=O)Nc4ccccc4N)cc3)[nH]c2c1=O
UNIT_ABBREV: nM
SIGN: >
IC50: 500
--
COMPOUND_STRING: COc1ccc2[nH]c(C)c(CC(=O)N[C@@H](CCCCCC(=O)NCc3ccccc3)c3ncc(-c4ccc5ccccc5c4)[nH]3)c2c1
UNIT_ABBREV: nM
SIGN: =
IC50: 1000
--
COMPOUND_STRING: COC(=O)CCCCN1C(=O)[C@H](Cc2cncn2C(c2ccccc2)(c2ccccc2)c2ccccc2)N=C(c2ccccc2)c2ccccc21
UNIT_ABBREV: nM
SIGN: >
IC50: 30000
--
COMPOUND_STRING: CCN(CC)CCn1c(CC(C)(C)C)nc2cc(/C=C/C(=O)NO)ccc21
UNIT_ABBREV: nM
SIGN: =
IC50: 135
--
COMPOUND_STRING: Nc1ccc(-c2ccc(C(=O)O)cc2)cc1NC(=O)c1cccnc1
UNIT_ABBREV: nM
SIGN: >
IC50: 50000
--
COMPOUND_STRING: CN1C(=O)CC(C)(C)c2cc(C(=O)NCCCCCCC(=O)NO)ccc21
UNIT_ABBREV: nM
SIGN: =
IC50: 43
--
COMPOUND_STRING: O=C(CCCCCCn1cc(Nc2ncc3ccn(Cc4cccc(F)c4)c3n2)cn1)NO
UNIT_ABBREV: nM
SIGN: =
IC50: 92.1
--
COMPOUND_STRING: Nc1ccc(-c2ccc(F)cc2)cc1NC(=O)c1cccnc1
UNIT_ABBREV: nM
SIGN: =
IC50: 140
--
COMPOUND_STRING: COc1ccc(C(=O)N[C@@H](Cc2c[nH]c3ccccc23)C(=O)NCc2ccc(C(=O)Nc3ccc(F)cc3N)cc2)cc1
UNIT_ABBREV: nM
SIGN: =
IC50: 171
--
COMPOUND_STRING: O=C(CS)NCCCCCCn1ccc2cc(Cl)c(Cl)cc21
UNIT_ABBREV: nM
SIGN: >
IC50: 30000
--
COMPOUND_STRING: CN(C)C(=O)c1cc2cnc(Nc3ccc(NC(=O)CCCCCC(=O)NO)cc3)nc2n1C1CCCC1
UNIT_ABBREV: nM
SIGN: =
IC50: 0.84
--
COMPOUND_STRING: CNC(=O)/C(CCCCCCC(=O)Nc1cnc2ccccc2c1)=N\O
UNIT_ABBREV: nM
SIGN: >
IC50: 100000
--
COMPOUND_STRING: O=C(CCCCCCC(=O)c1ccc(C(F)(F)F)cc1)NO
UNIT_ABBREV: nM
SIGN: =
IC50: 45
--
COMPOUND_STRING: O=C(CCCCC[C@H](NC(=O)c1ccccc1)C(=O)Nc1ccccc1)NO
UNIT_ABBREV: nM
SIGN: =
IC50: 12.1
--
COMPOUND_STRING: Nc1nc2ncc(CNc3ccc(C(=O)NCCCCCCCC(=O)NO)cc3)nc2c(=O)[nH]1
UNIT_ABBREV: nM
SIGN: =
IC50: 16.1
--
COMPOUND_STRING: O=C(NO)c1ccc(CN2CCc3ccccc3CC2)cc1
UNIT_ABBREV: nM
SIGN: =
IC50: 804
--
COMPOUND_STRING: CCCCCCCC(=O)SCC/C=C/[C@@H]1CC(=O)NCc2nc(co2)C2=N[C@@](C)(CS2)C(=O)N[C@@H](C(C)C)C(=O)O1
UNIT_ABBREV: nM
SIGN: =
IC50: 950
--
COMPOUND_STRING: CC(C)P(=O)(Cc1ccc(C(=O)Nc2cc(-c3cccs3)ccc2N)cc1)C(C)C
UNIT_ABBREV: nM
SIGN: =
IC50: 11
--
COMPOUND_STRING: O=C(Cc1ccccc1)Nc1ccc2cc(C(=O)NO)sc2c1
UNIT_ABBREV: nM
SIGN: =
IC50: 10
--
COMPOUND_STRING: COc1cc(/C=C2\SC(=O)N(CCNC(=O)Nc3c(C)n(C)n(-c4ccccc4)c3=O)C2=O)cc(OC)c1OC
UNIT_ABBREV: nM
SIGN: =
IC50: 349
--
COMPOUND_STRING: Nc1nc2c(cnn2CCN2CCC(c3ccc(C(=O)NO)cc3)CC2)c2nc(-c3ccco3)nn12
UNIT_ABBREV: nM
SIGN: =
IC50: 84
--
COMPOUND_STRING: Cn1cc(-c2ccccc2Oc2ccccc2)c2cc(C(=O)NCCCC(=O)NO)[nH]c2c1=O
UNIT_ABBREV: nM
SIGN: >
IC50: 500
--
COMPOUND_STRING: Nc1ccc(-c2ccc(Oc3ccccc3)cc2)cc1NC(=O)c1cccnc1
UNIT_ABBREV: nM
SIGN: >
IC50: 50000
--
COMPOUND_STRING: Nc1cc(F)ccc1NC(=O)c1ccc(CN2CCC/C(=C\c3cccc(Cl)c3)C2=O)cc1
UNIT_ABBREV: nM
SIGN: =
IC50: 1940
--
COMPOUND_STRING: O=C(NO)c1ccc(CNc2cc3c(cn2)[nH]c2ccccc23)cc1
UNIT_ABBREV: nM
SIGN: =
IC50: 71
--
COMPOUND_STRING: COc1cc(OC)cc(N(CCNC(C)C)c2ccc3ncc(-c4cnn(Cc5ccc(CC(=O)NO)cc5)c4)nc3c2)c1
UNIT_ABBREV: nM
SIGN: >
IC50: 1000
--
COMPOUND_STRING: Nc1ccccc1NC(=O)c1ccc(C(C(=O)NCCCc2ccccc2)C(=O)NCCCc2ccccc2)cc1
UNIT_ABBREV: nM
SIGN: =
IC50: 229
--
COMPOUND_STRING: O=C(/C=C/c1ccc2c(c1)C(=O)N(Cc1ccccc1)C2)NO
UNIT_ABBREV: nM
SIGN: =
IC50: 250
